MEASURED ON: Chromo domain-containing protein 1 (Saccharomyces cerevisiae (strain ATCC 204508 / S288c) (Baker's yeast)) (UniProt P32657)
Sequence (P32657 whole entry, the tested form may be a part): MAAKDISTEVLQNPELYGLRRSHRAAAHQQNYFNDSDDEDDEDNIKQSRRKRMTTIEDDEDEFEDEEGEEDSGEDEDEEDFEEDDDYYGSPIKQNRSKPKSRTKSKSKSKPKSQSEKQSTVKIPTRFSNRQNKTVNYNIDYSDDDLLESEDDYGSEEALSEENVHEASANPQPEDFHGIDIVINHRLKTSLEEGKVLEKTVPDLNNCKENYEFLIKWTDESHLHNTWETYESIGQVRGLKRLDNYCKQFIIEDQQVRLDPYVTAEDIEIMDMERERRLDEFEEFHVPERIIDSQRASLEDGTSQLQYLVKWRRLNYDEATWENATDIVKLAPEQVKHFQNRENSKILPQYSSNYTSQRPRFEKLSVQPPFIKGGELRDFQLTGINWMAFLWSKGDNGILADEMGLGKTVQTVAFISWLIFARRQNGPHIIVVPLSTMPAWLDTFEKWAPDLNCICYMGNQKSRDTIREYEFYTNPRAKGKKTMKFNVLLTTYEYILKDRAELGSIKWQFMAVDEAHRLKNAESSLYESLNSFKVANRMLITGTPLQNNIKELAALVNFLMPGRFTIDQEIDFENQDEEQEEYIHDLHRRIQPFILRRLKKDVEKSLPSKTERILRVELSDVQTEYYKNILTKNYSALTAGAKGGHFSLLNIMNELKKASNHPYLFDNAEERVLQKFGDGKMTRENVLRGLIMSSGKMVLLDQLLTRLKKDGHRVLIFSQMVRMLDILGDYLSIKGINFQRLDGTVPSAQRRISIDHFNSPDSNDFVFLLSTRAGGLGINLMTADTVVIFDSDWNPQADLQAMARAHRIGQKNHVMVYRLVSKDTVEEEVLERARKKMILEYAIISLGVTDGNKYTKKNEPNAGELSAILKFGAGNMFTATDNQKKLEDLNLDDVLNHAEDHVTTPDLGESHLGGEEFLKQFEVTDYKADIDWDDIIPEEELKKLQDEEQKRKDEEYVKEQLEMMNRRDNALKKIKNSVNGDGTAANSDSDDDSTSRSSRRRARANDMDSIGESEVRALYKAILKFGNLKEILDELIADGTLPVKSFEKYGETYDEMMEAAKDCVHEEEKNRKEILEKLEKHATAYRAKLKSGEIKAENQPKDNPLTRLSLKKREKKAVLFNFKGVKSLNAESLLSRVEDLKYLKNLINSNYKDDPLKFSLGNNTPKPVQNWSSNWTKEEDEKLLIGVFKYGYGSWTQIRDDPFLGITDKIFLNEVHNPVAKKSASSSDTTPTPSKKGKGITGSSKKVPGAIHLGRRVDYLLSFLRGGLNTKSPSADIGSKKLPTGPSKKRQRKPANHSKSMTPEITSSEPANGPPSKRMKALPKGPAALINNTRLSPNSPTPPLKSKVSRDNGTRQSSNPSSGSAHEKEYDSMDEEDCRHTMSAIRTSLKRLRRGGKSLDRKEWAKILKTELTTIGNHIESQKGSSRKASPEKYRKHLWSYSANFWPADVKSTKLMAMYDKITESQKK
ASSAY COMMENT: ScCHD-1 Enzyme Inhibition Assay
Format: functional
Set-up: scale not given: in the data most compounds retested in dose-response had high values
DETAILS: 30 µM
READOUT LABEL: Percent Effect (%)
Kindly provide the numeric value in % only, without the unit symbol.

Data request, read-out Percent Effect, for COc1ccc(C(CO)NC(=O)Nc2cccnc2)cc1 (stereo unspecified)
-2.24

Same question for COc1nc2c(cc1C(=O)N1C[C@H](N)C[C@H]1C(=O)NC(C)C)CCC2 please.
-4.1

Same question for COc1cccc(CN(C)C(=O)CSc2ccc3c(c2)OCCO3)c1 please.
0.365

Same question for CN(CC1CCCCO1)C(=O)c1ccnc(OC2CCC2)c1 (stereo unspecified) please.
-2.67

Same question for CNS(=O)(=O)c1cccc(CNc2nccc(C(F)(F)F)n2)c1 please.
-15.9

***
Data request, read-out Percent Effect, for O=C(NCCCn1nc2ccccn2c1=O)NC1CCC(O)CC1 (stereo unspecified)
-4.68

Same question for CCCS(=O)(=O)N1CCC2(CN(c3ccsc3)C(=O)CN2C)C1 (stereo unspecified) please.
-1.58

Same question for COc1ccc(C2C3=C(COC3=O)Nc3[nH]nc(C)c32)cc1OC (stereo unspecified) please.
-11

Same question for CC(=O)c1c(F)cccc1N1CCC(CS(N)(=O)=O)CC1 please.
-2.94

Same question for CO[C@H]1CN(C(=O)c2ccccn2)[C@@H]2CCCO[C@H]12 please.
3.83

Same question for COCCNc1ccc(CNC(=O)Nc2cn[nH]c2)cc1 please.
-5.01

----------
MEASURED ON: Tyrosyl-tRNA synthetase, putative (Trypanosoma cruzi (strain CL Brener))
Sequence (whole entry): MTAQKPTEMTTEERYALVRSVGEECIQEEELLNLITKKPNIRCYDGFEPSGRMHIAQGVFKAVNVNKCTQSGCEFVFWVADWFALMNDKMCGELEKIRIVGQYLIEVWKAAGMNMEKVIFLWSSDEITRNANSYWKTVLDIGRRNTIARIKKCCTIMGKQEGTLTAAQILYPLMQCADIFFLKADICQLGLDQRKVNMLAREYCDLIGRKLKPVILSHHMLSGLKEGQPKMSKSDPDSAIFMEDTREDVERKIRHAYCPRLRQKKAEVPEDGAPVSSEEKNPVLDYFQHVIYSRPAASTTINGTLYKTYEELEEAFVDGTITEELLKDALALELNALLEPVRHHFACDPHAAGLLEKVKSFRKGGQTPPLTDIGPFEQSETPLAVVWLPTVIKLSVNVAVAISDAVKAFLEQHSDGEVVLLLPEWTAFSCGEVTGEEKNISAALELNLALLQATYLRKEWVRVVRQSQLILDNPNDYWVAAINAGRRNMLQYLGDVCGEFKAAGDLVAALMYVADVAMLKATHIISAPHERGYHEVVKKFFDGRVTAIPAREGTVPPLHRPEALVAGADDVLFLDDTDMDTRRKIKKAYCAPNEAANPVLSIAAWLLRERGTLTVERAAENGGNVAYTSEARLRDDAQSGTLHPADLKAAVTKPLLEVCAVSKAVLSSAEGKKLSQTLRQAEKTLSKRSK
ASSAY COMMENT: Trypanosoma cruzi tyrosyl tRNA synthetase (TcYRS) _High Tyrosine SOP
Assay type: functional
Set-up: scale not given: in the data most compounds retested in dose-response had high values
DETAILS: 30 µM
Please note: 1 (yes) applies when Percent Effect is 3% or greater, and 0 (no) applies otherwise.

Solved entries (count: 2):
Please indicate if the recorded Percent Effect for CCN(CC1CN(Cc2ncc(C)o2)CCO1)c1cccnn1 (stereo unspecified) meets or exceeds 3%.
1 (yes)

Same question for O=C(CCn1cncn1)NC1(c2cccc(Br)c2)CCC1 please.
1 (yes)

***
Please indicate if the recorded Percent Effect for O=C(CCN1CCC(C(=O)c2cc(F)ccc2F)CC1)NC1CC1 meets or exceeds 3%.
1 (yes)

Same question for Cc1cccc(-n2cc(C(=O)N3CCCC(n4cccn4)C3)nn2)c1 (stereo unspecified) please.
1 (yes)

Same question for CSCC(C)(O)CNC(=O)c1ccc(Br)cc1F (stereo unspecified) please.
1 (yes)

Same question for Cn1cc(-c2csc(N3CCN(C(=O)OC(C)(C)C)CC3)n2)cn1 please.
1 (yes)

Same question for O=C(c1cc(COc2ccc3c(c2)OCO3)[nH]n1)N1CC=CC1CO (stereo unspecified) please.
1 (yes)

Same question for CN(C)C(=O)c1cccc(NC(=O)N(CCO)Cc2ccsc2)c1 please.
1 (yes)

Same question for Cc1nc(C(=O)N2CCCC(c3cccc(-n4ccnc4)n3)C2)co1 (stereo unspecified) please.
0 (no)

Same question for CCc1ccc(C(=O)N2CCN(CCS(C)(=O)=O)CC2)o1 please.
1 (yes)

Same question for CCN1CCC(NC(=O)CN2CCCCC2Cn2cc(C)cn2)CC1 (stereo unspecified) please.
0 (no)
